- System: EKVX NSCLC
- assay_explanation: NCI-60 one-dose screen, 48 h (100 = growth as untreated, 0 = no growth, -100 = all killed)
- condition_details: 10 µM unless noted
The panel holds about 83,000 compounds, 20% with a hit somewhere; the sample as a whole holds those more often. Active and inactive are the calls of the source. How the source made its calls: active means growth percent below 10; inactive means the rest.
property_name: growth

- C#Cc1cccc(Nc2nc(Cl)nc3cc(NC(=O)CCl)ccc23)c1: -76.5% (active)
- Cc1c(C)c2c(c(C)c1OC(=O)CCC(=O)[O-])CCC(C)(CCCCCCCCCCC[P+](c1ccccc1)(c1ccccc1)c1ccccc1)O2 (stereo not drawn): -25.1% (active)
- COc1ccc(C2=C/C(=C\c3ccccc3O)C(=O)N2Cc2ccccc2)cc1: 82.1% (inactive)
- COc1cccc(C2C3=C(COC3=O)N(CCO)c3cc4c(cc32)OCCO4)c1 (stereo not drawn): 39.7% (inactive)
- O=C(COc1ccc(/C=C2\Oc3ccccc3C2=O)cc1)Nc1nccs1: 84% (inactive)
- Cc1ccc2nc(/C=C/c3ccc(N(C)C)cc3)cc(C)c2c1: 52.4% (inactive)
- Cc1[nH]c(C2CC(c3ccc(C(F)(F)F)c(F)c3)=NN2C)c(C)c1C(=O)NCC(F)(F)F (stereo not drawn): 87.7% (inactive)
- Cc1c(Cl)cccc1NC(=O)c1sc2nc3c(cc2c1N)CCCC3: 52.4% (inactive)
- COC(=O)c1c(C)nc(C)c2c1C(=O)C(Br)=C(NCCN1CCOCC1)C2=O: 100% (inactive)
- COc1ccc(Cn2cc3c(c2)-c2oncc2CC3)cc1: 66.3% (inactive)
- O=[N+]([O-])c1ccc(Oc2cccc3c(Oc4ccc([N+](=O)[O-])cc4[N+](=O)[O-])cccc23)c([N+](=O)[O-])c1: 77.7% (inactive)
- O=C(/C=C\c1ccc(O)c(O)c1)c1ccccc1O: 73.3% (inactive)
- CN1C(=O)N(C)C2C1NN=c1s/c(=C\c3ccc(F)cc3)c(=O)n12 (stereo not drawn): 63.8% (inactive)
- COc1ccc(/C=C2/CCc3cc4ccc(OC)cc4[o+]c32)c(O)c1: 75.7% (inactive)
- COc1nc2ccccc2cc1/C=C1/C=C(c2ccccc2)NC1=O: 52.5% (inactive)
- CCOC(=O)CC1CSC(N/N=C/c2ccc(O)cc2)=N1 (stereo not drawn): 103% (inactive)
- COc1cc(C(=O)c2c(-c3ccccc3)oc3ccccc23)cc(OC)c1O: 51.3% (inactive)
- O=S(=O)(c1ccc(NCSc2nc3ccccc3s2)cc1)c1ccc(NCSc2nc3ccccc3s2)cc1: 101% (inactive)
- Cc1ccc(S(=O)(=O)c2nc(-c3ccccc3)oc2S(C)=O)cc1 (stereo not drawn): 55.6% (inactive)
- Cc1ccc(OCCOCCOCCOCCOc2ccc(C)n(O)c2=S)c(=S)n1O: 17.3% (inactive)
- O=C(NCCN1CCOCC1)c1cncnc1Nc1ccc2c(ccn2Cc2ccccn2)c1: 104% (inactive)
- Cc1[nH]c(C(=O)Nc2ccccc2OC2CCNC2)c(Cl)c1Cl (stereo not drawn): 70.3% (inactive)
- COc1cccc(/C=C2\CCc3ccccc3C2=O)c1: 87.9% (inactive)
